Where do these numbers come from? They come from PubChem BioAssay (NCI).

Tested on: SNB-75 CNS
EXPERIMENT: NCI tumour cell line growth inhibition, 48 h
Parameter GI50: see the listing below.

Example entries and their recorded answers appear below.
MOLECULE: COc1ccc(C(=O)C2C(C#N)C(C#N)C3C=Cc4ccccc4N32)cc1 (configuration not stated)
GI50: 278 nM

MOLECULE: COc1ccc2[nH]c(C(=O)N3CCN(C(=O)OCc4ccc5c(Br)cc(Br)c(O)c5n4)CC3)cc2c1
GI50: 735 nM

MOLECULE: CCC(=O)Oc1cc(/C=C/C(=O)O[C@H]2C[C@H]3CN4CCc5c([nH]c6cc(OC)ccc56)[C@@H]4C[C@@H]3[C@@H](C(=O)OC)[C@@H]2OC)ccc1OC
GI50: 3740 nM

MOLECULE: COc1cc2c3c(n(CCCNCCCNCCCn4c5c(c6cc(OC)c(OC)cc6c4=O)C(=O)c4ccccc4-5)c(=O)c2cc1OC)-c1ccccc1C3=O
GI50: 25000 nM

For O=C(Nc1ccc(-n2ccc3c(NC(=O)c4ccccc4)nccc32)cc1)c1cccc(C(F)(F)F)c1 , what is its reported GI50?
707 nM

Subsequent entry: C=CCCCC(=O)CCC(=O)OCC1O[C@@H](O[C@@H]2C(O)[C@@H](OC(C)=O)C(C)O[C@H]2O[C@H](CC=C)CCCCC)C(O)[C@@H](OC(=O)/C(C)=C/C)[C@@H]1OC(=O)/C=C/c1ccccc1 (some centres not stated)
13.3 nM

Subsequent entry: N#Cc1c(-c2ccc(Cl)cc2)cc(-c2cc(O)ccc2O)nc1N
914 nM

* * *

Parameter TGI: see the listing below.
Test system: SK-MEL-2 melanoma
EXPERIMENT: NCI tumour cell line growth inhibition, 48 h

COMPOUND: COc1c(-c2ccccc2)oc2c(CP(=O)(OC)OC)cccc2c1=O
TGI: > 100 µM
//
COMPOUND: CCOC(=O)c1c(O)cc(=O)[nH]c1N1CCOCC1
TGI: > 100 µM
//
COMPOUND: CC(C)(C)c1cc(C(C)(C)C)c2c(c1O)OC(=O)CS2
TGI: 28.1 µM
//
COMPOUND: CSC1C=C(C(C)C)CCC1(C)SC (stereo unspecified)
TGI: 32.8 µM

For CC#C[C@@]1(O)CCCCC1O (stereo partly specified) , what is its reported TGI?
> 100 µM

Subsequent entry: COc1cc(C2c3cc4c(cc3[C@@H](NCCCN3CCCC3=O)C3COC(=O)[C@H]23)OCO4)cc(OC)c1O (stereo partly specified)
> 100 µM

* * *

System: M14 melanoma
EXPERIMENT: NCI tumour cell line growth inhibition, 48 h
EXPERIMENTAL_ENDPOINT: TGI

Example entries and their recorded answers appear below.
SUBSTANCE_SMILES: O=C(/C=C/c1ccc2c(c1)OCO2)NCc1ccco1
TARGET_DESC: M14 melanoma
TGI: > 100 µM

SUBSTANCE_SMILES: COC(=O)c1c(C(=O)OC)c2ccc(-c3ccc(Cl)cc3)nn2c1C(=O)c1ccc([N+](=O)[O-])cc1
TARGET_DESC: M14 melanoma
TGI: > 100 µM

SUBSTANCE_SMILES: Cc1noc(NS(=O)(=O)c2ccc(NC(=O)c3ccc4[nH]c5ccccc5c(=O)c4c3)cc2)c1C
TARGET_DESC: M14 melanoma
TGI: > 100 µM

SUBSTANCE_SMILES: CC(=O)N(C)C=C1C(=O)N(C)C(=O)N(C)C1=O
TARGET_DESC: M14 melanoma
TGI: > 100 µM

For O=c1cc(N2CCOCC2)oc2c(-c3ccc4c(c3)OCCO4)csc12 , what is its reported TGI?
4.86 µM

* * *

Tested on: OVCAR-5 ovarian
EXPERIMENT: NCI tumour cell line growth inhibition, 48 h
EXPERIMENTAL_ENDPOINT: GI50

Example entries and their recorded answers appear below.
COMPOUND: CC12CC[C@@H]3c4cc5c(cc4CC[C@H]3[C@@H]1CCC2O)oc1cc(F)ccc15 (some centres not stated)
GI50: 24.8 µM

COMPOUND: Cn1ccnc1C(=O)/C=C/c1ccc(C(=O)Nc2ccccc2F)cc1
GI50: 2.42 µM

COMPOUND: Cc1ccc2nc3ccccc3c(NCc3ccccc3)c2c1
GI50: 2.81 µM

COMPOUND: COc1ccc(NC(=O)c2sc3nc(C)c(C(=O)/C=C/c4ccccc4)cc3c2N)cc1
GI50: 1.11 µM

COMPOUND: O=C(O)[C@@H]1CCCN1Cc1cc2cc3c(cc2c2cc(OCc4ccccc4)ccc12)OCO3
GI50: 21.4 µM

For COc1cc2c3c(n(CCCNCCCNCCCn4c5c(c6cc(OC)c(OC)cc6c4=O)C(=O)c4ccccc4-5)c(=O)c2cc1OC)-c1ccccc1C3=O , what is its reported GI50?
20 µM

Subsequent entry: COc1cc2c3c(n(CCCN(C)C)c(=O)c2cc1OC)-c1cc2c(cc1C3=O)OCO2
1.2 µM

Subsequent entry: COC(=O)c1ccc([C@H]2c3[nH]c4ccccc4c3C[C@H](C(=O)OC)N2C(=O)CCl)cc1
1.44 µM

Subsequent entry: O=C(N/N=C\c1cc(Cl)ccc1O)c1ccncc1
25.5 µM

* * *

Test system: HT29 colon
EXPERIMENT: NCI tumour cell line growth inhibition, 48 h
EXPERIMENTAL_ENDPOINT: TGI

Example entries and their recorded answers appear below.
COMPOUND: O=C(N/N=C\c1cc(Cl)ccc1O)c1ccncc1
RESULT: > 100 µM

COMPOUND: CC(O)C(C(=O)O)N(CC1(O)OCC(O)C(O)C1O)N=O (stereo unspecified)
RESULT: > 100 µM

COMPOUND: CCOC(=O)CC1c2ccc(O)cc2OC(=O)C1c1ccc(N)cc1 (stereo unspecified)
RESULT: > 100 µM

COMPOUND: CC1=C2[C@H]3OC(=O)[C@@H](C)[C@@H]3CC[C@@]2(C)C=CC1=O
RESULT: > 100 µM

COMPOUND: C=C1CC(c2ccc(O)c(OC)c2)Oc2c(OC)cccc21 (stereo unspecified)
RESULT: > 100 µM

COMPOUND: O=C1CS/C(=N/S(=O)(=O)c2ccc(N3N=C4c5ccccc5CC4C3c3cccs3)cc2)N(c2ccccc2)C1 (stereo unspecified)
RESULT: > 100 µM

Lab note: need TGI with HT29 colon for entry CCOC(=O)C1N(S(=O)(=O)c2ccc(C)cc2)CCC12C(c1ccc(OC)c(OC)c1)=Nc1ccccc12 (stereo unspecified) , please look it up.
> 100 µM

Subsequent entry: O=C(Nc1ccc(-n2ccc3c(NC(=O)c4ccccc4)nccc32)cc1)c1cccc(C(F)(F)F)c1
4.02 µM

* * *

Parameter TGI: see the listing below.
Tested on: 786-0 renal
EXPERIMENT: NCI tumour cell line growth inhibition, 48 h

Example entries and their recorded answers appear below.
MOLECULE: Cc1ccc(C2C(Cl)C(=O)N2n2cnc3ccccc3c2=O)cc1 (configuration not stated)
RESULT: > 100 µM

MOLECULE: O=C(/C=C/c1ccc(OCc2ccccc2)c(OCc2ccccc2)c1)OCc1ccccc1
RESULT: > 100 µM

MOLECULE: c1ccc(C[n+]2ccc3c(c2)CCCC3)cc1
RESULT: > 100 µM

MOLECULE: CC12CC[C@@H]3c4cc5c(cc4CC[C@H]3[C@@H]1CCC2O)oc1cc(F)ccc15 (some centres not stated)
RESULT: 37.4 µM

MOLECULE: CCC(=O)Oc1cc(/C=C/C(=O)O[C@H]2C[C@H]3CN4CCc5c([nH]c6cc(OC)ccc56)[C@@H]4C[C@@H]3[C@@H](C(=O)OC)[C@@H]2OC)ccc1OC
RESULT: > 100 µM

MOLECULE: CN(C)CC/C(=N\Nc1c(F)c(F)c(F)c(F)c1F)c1ccccc1
RESULT: > 100 µM

MOLECULE: CO[C@@H]1[C@H](O)CC[C@]2(CO2)[C@H]1[C@@]1(C)O[C@@H]1CC=C(C)C
RESULT: > 200 µM

MOLECULE: O=C1N=C(c2c(-c3[nH]c(=O)c4ccc(Br)cc4c3O)c(O)c3ccccc3c2O)C(=O)c2cc(Br)ccc21
RESULT: 0.805 µM

MOLECULE: O=C1CCC(=O)N1CNc1cccc(NCN2C(=O)CCC2=O)c1
RESULT: > 100 µM

MOLECULE: O=c1c2ccccc2sc2nc(CCl)nn12
RESULT: 34.1 µM

Lab note: need TGI with 786-0 renal for entry O=c1c2c3c(sc2n2c(CCl)nnc2n1Cc1ccccc1)CCCC3 , please look it up.
3.75 µM

Subsequent entry: CCCCCc1c(Cl)nc(Cl)nc1Cl
12.8 µM

Subsequent entry: O=C1C=Cc2c(-c3ccccc3)oc3cccc1c23
> 100 µM

Subsequent entry: C=CCCC(CCC=C)(C(=O)O)C(=O)O
> 100 µM

Subsequent entry: O=[N+]([O-])c1ccc(-c2nc(/C=N/N3CCCCC3)cs2)o1
> 100 µM

Subsequent entry: CCOC(=O)C(C)(C)Oc1ccc(Cl)cc1
> 1000 µM

Subsequent entry: CC(C)=NN/C(=N\S(=O)(=O)c1cc2ccccc2s1)Nc1ccc(Cl)cc1
> 100 µM

Subsequent entry: COc1ccc(/C=C/C(=O)Oc2ccc(/C=C3\CCCCC3=O)cc2)cc1
> 100 µM

Subsequent entry: CC1(C)CSCC(C)(C)C(=N/N)/C1=N\N
> 100 µM

Subsequent entry: O=C(O)[C@@H]1CCCN1Cc1cc2cc3c(cc2c2cc(OCc4ccccc4)ccc12)OCO3
> 100 µM

Subsequent entry: COC1OC(C)C(OC(=O)C(C)(C)C)C(OS(=O)(=O)c2ccc(C)cc2)C1OS(=O)(=O)c1ccc(C)cc1 (configuration not stated)
> 100 µM

Subsequent entry: Cc1nc2c(n1-c1ccc(Br)cc1)C(=O)c1ccccc1C2=O
> 71.1 µM
